system: 993429-296-R-J1-PDC complex spheroid growth, percent test/control; assay: Anticancer human tumor 993429-296-R-J1-PDC patient-derived uterine sarcoma cell line growth inhibition [Asc]; conditions: second compound 0.0316 µM; first compound 10 µM; active = viability on the fitted dose curve at most 10% of control; inactive = the rest
Reply using exactly one outcome from class 1 (active), class 0 (inactive)

Query string: Could you kindly confirm the outcome this assay logged for O=C(c1cc(Cc2n[nH]c(=O)c3ccccc23)ccc1F)N1CCN(C(=O)C2CC2)CC1 + CNC(C)C(=O)NC1CN(S(=O)(=O)c2cccc(S(=O)(=O)N3CCC4CCC(C(=O)NC(c5ccccc5)c5ccccc5)N4C(=O)C(NC(=O)C(C)NC)C3)c2)CCC2CCC(C(=O)NC(c3ccccc3)c3ccccc3)N2C1=O ?
Result string: class 0

Query string: Could you kindly confirm the outcome this assay logged for C=C(F)C(=O)N1CCN(c2nc(OCC3CCCN3C)nc3c2CCN(c2cccc4cccc(Cl)c24)C3)CC1CC#N (centres undefined) + CNC(C)C(=O)NC1CN(S(=O)(=O)c2cccc(S(=O)(=O)N3CCC4CCC(C(=O)NC(c5ccccc5)c5ccccc5)N4C(=O)C(NC(=O)C(C)NC)C3)c2)CCC2CCC(C(=O)NC(c3ccccc3)c3ccccc3)N2C1=O ?
Result string: class 1

Query string: Could you kindly confirm the outcome this assay logged for C#Cc1c(F)ccc2cc(O)cc(-c3ncc4c(N5CC6CCC(C5)N6)nc(OCC56CCCN5CC(F)C6)nc4c3F)c12 (centres undefined) + CNC(C)C(=O)NC1CN(S(=O)(=O)c2cccc(S(=O)(=O)N3CCC4CCC(C(=O)NC(c5ccccc5)c5ccccc5)N4C(=O)C(NC(=O)C(C)NC)C3)c2)CCC2CCC(C(=O)NC(c3ccccc3)c3ccccc3)N2C1=O ?
Result string: class 0

Query string: Could you kindly confirm the outcome this assay logged for C=CC(=O)N1CCN(c2nc(=O)n(-c3c(C)ccnc3C(C)C)c3nc(-c4c(O)cccc4F)c(F)cc23)C(C)C1 (centres undefined) + CNC(C)C(=O)NC1CN(S(=O)(=O)c2cccc(S(=O)(=O)N3CCC4CCC(C(=O)NC(c5ccccc5)c5ccccc5)N4C(=O)C(NC(=O)C(C)NC)C3)c2)CCC2CCC(C(=O)NC(c3ccccc3)c3ccccc3)N2C1=O ?
Result string: class 0

###

System: 993429-296-R-J1-PDC complex spheroid growth, percent test/control
Assay: Anticancer human tumor 993429-296-R-J1-PDC cell line growth inhibition [Asc];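 note: spheroids exposed to compounds for seven days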
Conditions: second compound 0.01 µM; first compound 0.1 µM; active compounds read low
Source text: Multicellular complex tumor spheroid response to apoptosis pathway targeting inhibitors Alrizomadlin, Pelcitoclax, and Dasminapant in combination with a variety of drugs and investigational agents in selected tumor cell lines […] Compounds. […] If the clinical Cmax for an agent had not been determined, the highest concentration tested was 10 microM. […]
Answer each item with its documented viability, T/C.
Give the quantity in %, number only.

Query string: Recorded viability, T/C for C#Cc1c(F)ccc2cc(O)cc(-c3ncc4c(N5CC6CCC(C5)N6)nc(OCC56CCCN5CC(F)C6)nc4c3F)c12 (stereo not drawn) + CNC(C)C(=O)NC1CN(S(=O)(=O)c2cccc(S(=O)(=O)N3CCC4CCC(C(=O)NC(c5ccccc5)c5ccccc5)N4C(=O)C(NC(=O)C(C)NC)C3)c2)CCC2CCC(C(=O)NC(c3ccccc3)c3ccccc3)N2C1=O , please?
Result string: 67.2

Query string: Recorded viability, T/C for O=C(c1cc(Cc2n[nH]c(=O)c3ccccc23)ccc1F)N1CCN(C(=O)C2CC2)CC1 + CNC(C)C(=O)NC1CN(S(=O)(=O)c2cccc(S(=O)(=O)N3CCC4CCC(C(=O)NC(c5ccccc5)c5ccccc5)N4C(=O)C(NC(=O)C(C)NC)C3)c2)CCC2CCC(C(=O)NC(c3ccccc3)c3ccccc3)N2C1=O , please?
Result string: 73.3

Query string: Recorded viability, T/C for C=CC(=O)N1CCN(c2nc(=O)n(-c3c(C)ccnc3C(C)C)c3nc(-c4c(O)cccc4F)c(F)cc23)C(C)C1 (stereo not drawn) + CNC(C)C(=O)NC1CN(S(=O)(=O)c2cccc(S(=O)(=O)N3CCC4CCC(C(=O)NC(c5ccccc5)c5ccccc5)N4C(=O)C(NC(=O)C(C)NC)C3)c2)CCC2CCC(C(=O)NC(c3ccccc3)c3ccccc3)N2C1=O , please?
Result string: 67.2

###

test system: 993429-296-R-J1-PDC complex spheroid growth, percent test/control; test: Anticancer human tumor 993429-296-R-J1-PDC cell line growth inhibition [Asc]; settings: second compound 1 µM; first compound 0.316 µM; active compounds read low;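 note: spheroids exposed to compounds for seven days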
Test Readout: viability, T/C (%)
Give the quantity in %, number only.

Query string: State its viability, T/C on 993429-296-R-J1-PDC complex spheroid growth, percent test/control: C#Cc1c(F)ccc2cc(O)cc(-c3ncc4c(N5CC6CCC(C5)N6)nc(OCC56CCCN5CC(F)C6)nc4c3F)c12 (stereo not drawn) + CNC(C)C(=O)NC1CN(S(=O)(=O)c2cccc(S(=O)(=O)N3CCC4CCC(C(=O)NC(c5ccccc5)c5ccccc5)N4C(=O)C(NC(=O)C(C)NC)C3)c2)CCC2CCC(C(=O)NC(c3ccccc3)c3ccccc3)N2C1=O
Result string: 39.5

Query string: State its viability, T/C on 993429-296-R-J1-PDC complex spheroid growth, percent test/control: O=C(c1cc(Cc2n[nH]c(=O)c3ccccc23)ccc1F)N1CCN(C(=O)C2CC2)CC1 + CNC(C)C(=O)NC1CN(S(=O)(=O)c2cccc(S(=O)(=O)N3CCC4CCC(C(=O)NC(c5ccccc5)c5ccccc5)N4C(=O)C(NC(=O)C(C)NC)C3)c2)CCC2CCC(C(=O)NC(c3ccccc3)c3ccccc3)N2C1=O
Result string: 59.5

Query string: State its viability, T/C on 993429-296-R-J1-PDC complex spheroid growth, percent test/control: C=CC(=O)N1CCN(c2nc(=O)n(-c3c(C)ccnc3C(C)C)c3nc(-c4c(O)cccc4F)c(F)cc23)C(C)C1 (stereo not drawn) + Cc1c(S(C)(=O)=O)c(-c2cc(F)cc(N3CCN(c4ccc(NS(=O)(=O)c5ccc(NC(CCN6CCC(C(=O)OCCCP(=O)(O)O)CC6)CSc6ccccc6)c(S(=O)(=O)C(F)(F)F)c5)cc4)CC3)c2)c(-c2ccc(Cl)cc2)n1C(C)C
Result string: 76.8

###

system: 993429-296-R-J1-PDC complex spheroid growth, percent test/control; experiment: Anticancer human tumor 993429-296-R-J1-PDC cell line growth inhibition [Asc]; settings: second compound 1 µM; first compound 0.0316 µM; active compounds read low;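 note: spheroids exposed to compounds for seven days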
Test Readout: viability, T/C (%)
Give the quantity in %, number only.

Query string: Recorded viability, T/C for NC1CCC(NC2CC2c2ccccc2)CC1 (configuration not stated) + CNC(C)C(=O)NC1CN(S(=O)(=O)c2cccc(S(=O)(=O)N3CCC4CCC(C(=O)NC(c5ccccc5)c5ccccc5)N4C(=O)C(NC(=O)C(C)NC)C3)c2)CCC2CCC(C(=O)NC(c3ccccc3)c3ccccc3)N2C1=O , please?
Result string: 47.9

Query string: Recorded viability, T/C for O=C(c1cc(Cc2n[nH]c(=O)c3ccccc23)ccc1F)N1CCN(C(=O)C2CC2)CC1 + Cc1c(S(C)(=O)=O)c(-c2cc(F)cc(N3CCN(c4ccc(NS(=O)(=O)c5ccc(NC(CCN6CCC(C(=O)OCCCP(=O)(O)O)CC6)CSc6ccccc6)c(S(=O)(=O)C(F)(F)F)c5)cc4)CC3)c2)c(-c2ccc(Cl)cc2)n1C(C)C , please?
Result string: 51.5

Query string: Recorded viability, T/C for Cn1ncnc1[C@H]1c2n[nH]c(=O)c3cc(F)cc(c23)N[C@@H]1c1ccc(F)cc1 + Cc1c(S(C)(=O)=O)c(-c2cc(F)cc(N3CCN(c4ccc(NS(=O)(=O)c5ccc(NC(CCN6CCC(C(=O)OCCCP(=O)(O)O)CC6)CSc6ccccc6)c(S(=O)(=O)C(F)(F)F)c5)cc4)CC3)c2)c(-c2ccc(Cl)cc2)n1C(C)C , please?
Result string: 22.7

Query string: Recorded viability, T/C for CCN1CCN(Cc2ccc(Nc3ncc(F)c(-c4cc(F)c5nc(C)n(C(C)C)c5c4)n3)nc2)CC1 + Cc1c(S(C)(=O)=O)c(-c2cc(F)cc(N3CCN(c4ccc(NS(=O)(=O)c5ccc(NC(CCN6CCC(C(=O)OCCCP(=O)(O)O)CC6)CSc6ccccc6)c(S(=O)(=O)C(F)(F)F)c5)cc4)CC3)c2)c(-c2ccc(Cl)cc2)n1C(C)C , please?
Result string: 49.5

Query string: Recorded viability, T/C for NC1CCC(NC2CC2c2ccccc2)CC1 (configuration not stated) + Cc1c(S(C)(=O)=O)c(-c2cc(F)cc(N3CCN(c4ccc(NS(=O)(=O)c5ccc(NC(CCN6CCC(C(=O)OCCCP(=O)(O)O)CC6)CSc6ccccc6)c(S(=O)(=O)C(F)(F)F)c5)cc4)CC3)c2)c(-c2ccc(Cl)cc2)n1C(C)C , please?
Result string: 28.3

Query string: Recorded viability, T/C for C=C(F)C(=O)N1CCN(c2nc(OCC3CCCN3C)nc3c2CCN(c2cccc4cccc(Cl)c24)C3)CC1CC#N (configuration not stated) + CNC(C)C(=O)NC1CN(S(=O)(=O)c2cccc(S(=O)(=O)N3CCC4CCC(C(=O)NC(c5ccccc5)c5ccccc5)N4C(=O)C(NC(=O)C(C)NC)C3)c2)CCC2CCC(C(=O)NC(c3ccccc3)c3ccccc3)N2C1=O , please?
Result string: 57.8

Query string: Recorded viability, T/C for C#Cc1c(F)ccc2cc(O)cc(-c3ncc4c(N5CC6CCC(C5)N6)nc(OCC56CCCN5CC(F)C6)nc4c3F)c12 (configuration not stated) + CNC(C)C(=O)NC1CN(S(=O)(=O)c2cccc(S(=O)(=O)N3CCC4CCC(C(=O)NC(c5ccccc5)c5ccccc5)N4C(=O)C(NC(=O)C(C)NC)C3)c2)CCC2CCC(C(=O)NC(c3ccccc3)c3ccccc3)N2C1=O , please?
Result string: 49.9
